# Protocol Description: amyloid nucleation score (Sup35N fusion, yeast selection) (log enrichment); library NNK3; higher = more nucleation; inactive = no reads after selection;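 note: zero at mode of non-aggregating sequences after 7 days selection at 30°C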
Endpoint Name: amyloid nucleation score

Sample answers from the record:
VMCVFLLYI; 1.08
ADIRFKMRENDMFWSNGWGH; inactive
LAVSGKEHAK; inactive
WKYRMTQRPQMVNWNVLRYE; inactive
FTMMCVYMSWQSGSQRTVTI; inactive
IQTSNTHVVLVFFGRILRIC; inactive
WRAAIEDASLFIERIHNNSS; inactive
LESSVMLLKRRIILVLCLHG; inactive

Supply amyloid nucleation score value. Item: QSRPKMMFLDSGCFWGFCVR
inactive

Supply amyloid nucleation score value. Item: SVRFDDAMIDGITSAYMIKY
inactive

Supply amyloid nucleation score value. Item: AVHFGLYFLMRVITMC
inactive

Supply amyloid nucleation score value. Item: VFGMKSRDIRIS
inactive

Supply amyloid nucleation score value. Item: KLCTVINRLYLHRGGNSNSQ
inactive

Supply amyloid nucleation score value. Item: LNVRSI
inactive

Supply amyloid nucleation score value. Item: YCDSVWNQNSTYHISL
inactive

Supply amyloid nucleation score value. Item: IHIFTLKYKVRARKLATTIS
inactive

Supply amyloid nucleation score value. Item: TGVMRYRCLNLFVASICSVP
inactive

Supply amyloid nucleation score value. Item: FNCLHIYWMM
0.372

----------
# Protocol Description: amyloid nucleation score (Sup35N fusion, yeast selection) (log enrichment); library NNK2; higher = more nucleation; inactive = no reads after selection
Give measured amyloid nucleation score for each item. Keep answers brief.
When you answer, write just the number.

Supply amyloid nucleation score value. Item: KSMKEFSKFVLMSAP
0.192

Supply amyloid nucleation score value. Item: TSQQRAYITP
-0.703

Supply amyloid nucleation score value. Item: GIMGDGGGHALWTEEELKVR
1.01

Supply amyloid nucleation score value. Item: DFWFSGDFK
-0.778

Supply amyloid nucleation score value. Item: WCRAWGDFIMVKSLGLKCIA
-0.1

Supply amyloid nucleation score value. Item: SNAVLWNTGIFIKKYC
-1.38

Supply amyloid nucleation score value. Item: MDCILNYFFVLLLGHGNLLM
-0.826

Supply amyloid nucleation score value. Item: RLYNSQFIKYWNFSSRCCLL
3.51

Supply amyloid nucleation score value. Item: KSRPSTV
-1.68

Supply amyloid nucleation score value. Item: AMERDYFLTVTCDRVKYLGE
1.01

Supply amyloid nucleation score value. Item: LVAFFFVSPFGGGHIAIRLR
-0.114

Supply amyloid nucleation score value. Item: LNKNYWGL
-0.921

Supply amyloid nucleation score value. Item: TSERRLNYTCCNYWYMG
9.05

Supply amyloid nucleation score value. Item: RRRHLGFGKSVEVE
-0.549

Supply amyloid nucleation score value. Item: DSSSCYMYLCTGNYPDNFNF
4.5

Supply amyloid nucleation score value. Item: GPLFHTTRLRDNHM
3.11

Supply amyloid nucleation score value. Item: LYFASVNQTNSFLRIL
2.93

Supply amyloid nucleation score value. Item: ANSMLVF
-0.573

Supply amyloid nucleation score value. Item: SGLCSCTVACVGFVHFDARV
5.38

Supply amyloid nucleation score value. Item: LNLQSLTSHTVKGL
0.147

Supply amyloid nucleation score value. Item: DASMQF
0.797

Supply amyloid nucleation score value. Item: YNSVKLLEGPFLCSSLTGS
0.444

Supply amyloid nucleation score value. Item: STNSDFLYQKNLPMVSSGNI
-0.408

Supply amyloid nucleation score value. Item: WFCVVVMFGRRVDNLDKLVF
-1.33

Supply amyloid nucleation score value. Item: PWPYIWSRCSQTDTVSCEHS
-0.212

Supply amyloid nucleation score value. Item: KNLVDWVYYPPMH
-1.23

Supply amyloid nucleation score value. Item: GRNVMTKAPYCTCWANVLHS
6.67

Supply amyloid nucleation score value. Item: PNSYAETDWISLCSDSMSWH
0.721

Supply amyloid nucleation score value. Item: KAYLCSFMMCFLL
6.8

Supply amyloid nucleation score value. Item: ALKFHGSNDSRFLI
-0.756

Supply amyloid nucleation score value. Item: RHFYRSKMAMVYGFHTAFTG
-0.582

Supply amyloid nucleation score value. Item: MFAVLSLDRGYHKAR
-0.205

Supply amyloid nucleation score value. Item: DRLAILSNFGVVMIPTLRLY
-0.09

Supply amyloid nucleation score value. Item: SKFYNSYSYFTLFVVVLMFD
-0.936

Supply amyloid nucleation score value. Item: WAGRCDHK
0.227

Supply amyloid nucleation score value. Item: FWYENP
2.14

Supply amyloid nucleation score value. Item: RFEFIVMSLW
3.19

Supply amyloid nucleation score value. Item: GLMTYFSSVESGEHTDRNLS
-0.732

Supply amyloid nucleation score value. Item: STMRSWAAC
4.25

Supply amyloid nucleation score value. Item: RCLVREISNPDGSDSIIWLR
-0.574

Supply amyloid nucleation score value. Item: PVWKVERRNSHLLKDIGNSI
0.325

Supply amyloid nucleation score value. Item: IVRELAVVLKKFYLFALFLR
-0.882

Supply amyloid nucleation score value. Item: GTGINLSFLYFAAGVLCSSS
-1.52

Supply amyloid nucleation score value. Item: AAFTRTSP
0.858

Supply amyloid nucleation score value. Item: STWKNDHTHSCASWAKVCIT
-0.138

Supply amyloid nucleation score value. Item: SGYMMNFAA
1.24

Supply amyloid nucleation score value. Item: VAVDLRGIDGNIYAFQAKIE
2.97

Supply amyloid nucleation score value. Item: RRNFGGNLNWIDIVYEHVCL
0.09

Supply amyloid nucleation score value. Item: FVQSVGNMVSNSGRAGGMPG
0.444
